# Target of assay: Solute carrier family 15 member 2 (Rattus norvegicus)
# Sequence (Q63424 whole entry): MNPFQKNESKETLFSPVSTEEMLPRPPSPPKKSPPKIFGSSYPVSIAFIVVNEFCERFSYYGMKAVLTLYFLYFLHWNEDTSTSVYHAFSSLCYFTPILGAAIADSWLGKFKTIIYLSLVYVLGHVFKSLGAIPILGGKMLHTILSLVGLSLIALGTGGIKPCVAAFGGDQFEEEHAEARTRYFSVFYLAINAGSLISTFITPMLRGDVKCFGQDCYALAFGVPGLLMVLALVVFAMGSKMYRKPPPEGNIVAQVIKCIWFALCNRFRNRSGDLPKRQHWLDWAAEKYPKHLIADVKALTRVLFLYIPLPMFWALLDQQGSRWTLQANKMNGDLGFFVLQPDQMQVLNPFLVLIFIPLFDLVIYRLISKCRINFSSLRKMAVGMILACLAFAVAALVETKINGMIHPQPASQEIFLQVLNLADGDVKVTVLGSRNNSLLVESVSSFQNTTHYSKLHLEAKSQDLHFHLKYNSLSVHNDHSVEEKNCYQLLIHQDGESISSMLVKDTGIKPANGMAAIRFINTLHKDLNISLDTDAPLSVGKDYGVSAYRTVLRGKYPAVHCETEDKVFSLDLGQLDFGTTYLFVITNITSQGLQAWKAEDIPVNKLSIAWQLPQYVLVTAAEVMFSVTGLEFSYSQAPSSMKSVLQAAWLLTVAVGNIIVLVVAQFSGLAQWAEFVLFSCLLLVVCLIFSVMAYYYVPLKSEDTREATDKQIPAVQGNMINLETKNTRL
# Protocol text: TP_TRANSPORTER: inhibition of Gly-Sar uptake in PEPT2-expressing LLC-PK1 cells
pKi: −log10 of the molar value. Peptide text beside a SMILES is read from it.
Measurement name: pKi

{"columns": ["Molecule", "Target of assay", "Numeric value"],
 "data": [
  ["CNCC(=O)NCC(=O)O", "Solute carrier family 15 member 2 (Rattus norvegicus)", 2.66],
  ["NCC(=O)N[C@@H](Cc1c[nH]c2ccccc12)C(=O)O (H-Gly-Trp-OH)", "Solute carrier family 15 member 2 (Rattus norvegicus)", 5.15],
  ["NCC(=O)NCC(=O)O (H-Gly-Gly-OH)", "Solute carrier family 15 member 2 (Rattus norvegicus)", 4.38],
  ["N[C@@H](Cc1ccccc1)C(=O)NCC(=O)O (H-Phe-Gly-OH)", "Solute carrier family 15 member 2 (Rattus norvegicus)", 5.15],
  ["NCC(=O)N[C@@H](Cc1c[nH]cn1)C(=O)O (H-Gly-His-OH)", "Solute carrier family 15 member 2 (Rattus norvegicus)", 4.41],
  ["NCC(=O)N[C@@H](Cc1ccc(O)cc1)C(=O)O (H-Gly-Tyr-OH)", "Solute carrier family 15 member 2 (Rattus norvegicus)", 4.85],
  ["NCCCC[C@H](NC(=O)CN)C(=O)O (H-Gly-Lys-OH)", "Solute carrier family 15 member 2 (Rattus norvegicus)", 3.68],
  ["CC(C)C[C@H](NC(=O)CN)C(=O)O", "Solute carrier family 15 member 2 (Rattus norvegicus)", 5.22],
  ["NCC(=O)N[C@@H](CC(N)=O)C(=O)O (H-Gly-Asn-OH)", "Solute carrier family 15 member 2 (Rattus norvegicus)", 4.66],
  ["N[C@@H](CC(=O)O)C(=O)N[C@@H](CC(=O)O)C(=O)O (H-Asp-Asp-OH)", "Solute carrier family 15 member 2 (Rattus norvegicus)", 3.82],
  ["NCCCCCCCC(=O)O", "Solute carrier family 15 member 2 (Rattus norvegicus)", 2.10],
  ["NCCCC[C@H](NC(=O)[C@@H](N)CCCCN)C(=O)O", "Solute carrier family 15 member 2 (Rattus norvegicus)", 4.02]
]}
